Quick reference: melting point of the listed items.
Where a name gives a salt, the structure may show the parent alone.

Look over these answered cases.
>>> result("O=C1N(CCN2CCCCC2)CN(c2ccccc2)C12CCN(C1(c3ccccc3)CCCCCC1)CC2 (as salt: HCl)")
"174 to 178 °C"
>>> result("CC1(N2CCC3(CC2)C(=O)NCN3c2ccccc2)CCC=CCC1 (as salt: hydrochloride)")
"251 to 254 °C"
>>> result("CC1(N2CCC3(CC2)C(=O)N(CCCN)CN3c2ccccc2)CCCCCC1 (as salt: HCl)")
"216 to 220 °C"
>>> result("CC1(N2CCC3(CC2)C(=O)N(CCN2CCCCC2)CN3c2ccccc2)CCCCCC1 (as salt: HCl)")
"50 to 53 °C"

Could you now look at the following molecule, please?
I have this molecule here, NCCCN1CN(c2ccccc2)C2(CCN(C3(c4ccccc4)CCCCCC3)CC2)C1=O (as salt: HCl) , and I need its recorded melting point.
150 to 154 °C

Attribution: patent US6465478B1
